# assayedTarget: Proteasome subunit beta type-10 (Homo sapiens) (UniProt P40306)
# Sequence (P40306 whole entry): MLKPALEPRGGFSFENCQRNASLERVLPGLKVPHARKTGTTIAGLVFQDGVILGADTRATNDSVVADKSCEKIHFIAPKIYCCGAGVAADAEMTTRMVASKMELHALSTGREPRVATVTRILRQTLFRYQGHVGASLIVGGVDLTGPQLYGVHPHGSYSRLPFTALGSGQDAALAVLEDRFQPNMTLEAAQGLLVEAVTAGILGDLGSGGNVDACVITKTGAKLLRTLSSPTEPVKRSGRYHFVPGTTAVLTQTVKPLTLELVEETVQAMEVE
# procedureDetails: Inhibition of human 20S immunoproteasome beta-2 at 50 uM using BocLRR-AMC as substrate incubated for 15 mins measured for 45 mins by fluorescence assay relative to control
Activity calls are given as the source filed them. The rule behind the calls is not given here.
property: inhibition

- smilesCode: "C[C@H](NC(=O)[C@H](Cc1ccc(O)cc1)NC(=O)OC(C)(C)C)C(=O)N[C@@H](C[C@]1(O)C(=O)Nc2ccccc21)C(=O)NCc1ccccc1"
  assayedTarget: "Proteasome subunit beta type-10 (Homo sapiens) (UniProt P40306)"
  inhibition: "10%"
- smilesCode: "C[C@H](O)[C@@H](NC(=O)OCc1ccccc1)C(=O)N[C@@H](C[C@]1(O)C(=O)Nc2ccccc21)C(=O)NCc1ccccc1"
  assayedTarget: "Proteasome subunit beta type-10 (Homo sapiens) (UniProt P40306)"
  inhibition: "inactive"
- smilesCode: "C[C@H](NC(=O)[C@H](Cc1ccc(OCc2ccccc2)cc1)NC(=O)OC(C)(C)C)C(=O)N[C@@H](C[C@]1(O)C(=O)Nc2ccccc21)C(=O)NCCc1ccccc1"
  assayedTarget: "Proteasome subunit beta type-10 (Homo sapiens) (UniProt P40306)"
  inhibition: "26%"
- smilesCode: "CNC(=O)[C@H](C[C@]1(O)C(=O)Nc2ccccc21)NC(=O)[C@H](C)NC(=O)[C@H](Cc1ccc(OCc2ccccc2)cc1)NC(=O)OC(C)(C)C"
  assayedTarget: "Proteasome subunit beta type-10 (Homo sapiens) (UniProt P40306)"
  inhibition: "> 85%"

Challenge: Item COC(=O)CCNC(=O)[C@H](C[C@]1(O)C(=O)Nc2ccccc21)NC(=O)[C@H](C)NC(=O)[C@H](Cc1ccc(OCc2ccccc2)cc1)NC(=O)OC(C)(C)C has what recorded inhibition?
Response given: > 85%

Challenge: Item C[C@H](NC(=O)[C@H](Cc1ccc(OCc2ccccc2)cc1)NC(=O)OC(C)(C)C)C(=O)N[C@@H](C[C@]1(O)C(=O)Nc2ccccc21)C(=O)NC(c1ccccc1)c1ccccc1 has what recorded inhibition?
Response given: inactive

Challenge: Item CNC(=O)[C@H](C[C@@]1(O)C(=O)Nc2ccccc21)NC(=O)[C@H](C)NC(=O)[C@H](Cc1ccc(OCc2ccccc2)cc1)NC(=O)OC(C)(C)C has what recorded inhibition?
Response given: 19%

Challenge: Item C[C@H](NC(=O)[C@H](Cc1ccc(OCc2ccccc2)cc1)NC(=O)OC(C)(C)C)C(=O)N[C@@H](C[C@]1(O)C(=O)Nc2ccccc21)C(=O)NCC(C)(C)C has what recorded inhibition?
Response given: > 85%

###

# assayedTarget: Proteasome subunit beta type-9 (Homo sapiens) (UniProt P28065)
# Sequence (P28065 whole entry): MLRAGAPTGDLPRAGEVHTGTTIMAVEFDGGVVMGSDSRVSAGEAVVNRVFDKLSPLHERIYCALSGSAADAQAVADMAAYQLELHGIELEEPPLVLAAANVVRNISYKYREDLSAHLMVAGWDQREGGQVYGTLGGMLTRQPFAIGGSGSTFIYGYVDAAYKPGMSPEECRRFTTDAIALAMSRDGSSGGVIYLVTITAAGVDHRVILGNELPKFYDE
# procedureDetails: Inhibition of human 20S immunoproteasome beta-1 at 50 uM using Ac-PAL-AMC as substrate incubated for 15 mins measured for 45 mins by fluorescence assay relative to control
property: inhibition

Consider the reported inhibition for these molecules:
- smilesCode: "C[C@H](NC(=O)[C@H](Cc1ccc(OCc2ccccc2)cc1)NC(=O)OC(C)(C)C)C(=O)N[C@@H](C[C@]1(O)C(=O)Nc2ccccc21)C(=O)NCc1ccc(-c2ccccc2)cc1"
  inhibition: "> 85%"
- smilesCode: "C[C@H](NC(=O)[C@H](Cc1ccc(OCc2ccccc2)cc1)NC(=O)OC(C)(C)C)C(=O)N[C@@H](C[C@]1(O)C(=O)Nc2ccccc21)C(=O)NCCC(=O)O"
  inhibition: "17%"

Challenge: Item C[C@H](NC(=O)[C@H](Cc1ccc(OCc2ccccc2)cc1)NC(=O)OC(C)(C)C)C(=O)N[C@@H](C[C@]1(O)C(=O)Nc2ccccc21)C(=O)NCCc1ccccc1 has what recorded inhibition?
Response given: > 85%

Challenge: Item CC(C)(C)OC(=O)N[C@@H](Cc1ccc(OCc2ccccc2)cc1)C(=O)N[C@@H](CC(N)=O)C(=O)N[C@@H](C[C@]1(O)C(=O)Nc2ccccc21)C(=O)NCc1ccccc1 has what recorded inhibition?
Response given: > 85%

Challenge: Item CC(C)c1ccc(CNC(=O)[C@H](C[C@]2(O)C(=O)Nc3ccccc32)NC(=O)[C@H](C)NC(=O)[C@H](Cc2ccc(OCc3ccccc3)cc2)NC(=O)OC(C)(C)C)cc1 has what recorded inhibition?
Response given: > 85%
